# System: MDA-MB-468 breast
# assay method text: NCI-60 one-dose screen, 48 h
# measurement context: 10 µM unless noted
About 83,000 compounds went through this panel and 20% of them were active in at least one assay; those are over-represented in the sample as a whole. The source made the active and inactive calls. Rule for the calls: active = growth percent below 10; inactive = the rest.
Tick one outcome: Y = active, N = inactive

(Q) Hi team, can someone confirm the assay call for O=S(=O)(O)CCI ?
(A) N

(Q) Same again, this time with Cn1ccnc1C(=O)/C=C/c1ccc(CC(=O)Nc2ccccc2)cc1
(A) Y

(Q) Same again, this time with O=C(/C=C/c1ccc(Cl)c(Cl)c1)Nc1ncc(Cc2ccc(Cl)c(Cl)c2)s1
(A) N

(Q) Same again, this time with CN(C)c1ccc(-c2ccc(-c3ccc(C(=N)N)cn3)o2)cc1
(A) Y

(Q) Same again, this time with C#C[C@@]1(O)[C@@H](CO)O[C@@H](n2cc(Cl)c3c(N)ncnc32)[C@@H]1O
(A) Y

(Q) Same again, this time with C=NNc1ccccc1
(A) N

(Q) Same again, this time with OC(COc1cccc2ccccc12)CN1CCN(c2ccccc2)CC1 (configuration not stated)
(A) N

(Q) Same again, this time with CCn1c(Sc2nnc(NC(C)=O)s2)nc2c1c(=O)n(C)c(=O)n2C
(A) N

(Q) Same again, this time with Cc1c[nH]c(=O)n(Cc2nnc(CCC(=O)c3nc4ccccc4[nH]3)o2)c1=O
(A) Y

(Q) Same again, this time with NC(CCCC(N)C(=O)c1ccccc1)C(=O)O (configuration not stated)
(A) N

(Q) Same again, this time with O=C1c2ccccc2CCC1(Br)Br
(A) Y

(Q) Same again, this time with Oc1ccc2ccccc2c1N=Nc1ccccn1
(A) Y

###

# System: MDA-MB-468 breast
# assay method text: NCI-60 one-dose screen, 48 h (100 = growth as untreated, 0 = no growth, -100 = all killed)
# measurement context: 10 µM unless noted
This is part of a sample that, as a whole, favours compounds with a hit. Of some 83,000 tested, about 20% had one in any assay.
Provide the recorded growth for the entries that follow.
State the answer as a number, implicitly in %.

(Q) Which value of growth has been reported for CCOC(=O)c1ccc(-c2ccc3cc(OC)ccc3c2)nc1C in the records?
(A) 119

(Q) Same again, this time with CCn1c2ccc(O)cc2c2c(C)c3c[n+](C)ccc3c(C)c21
(A) -31.2

(Q) Same again, this time with Cc1ccc2c(n1)C(=O)C(Cl)=C(Nc1ccc(C(F)(F)F)cc1)C2=O
(A) -48.5

(Q) Same again, this time with CCOC(=O)c1ccc(NC(=O)Nc2nncs2)cc1
(A) 12.5

(Q) Same again, this time with COc1cc(-c2nc(SC(C)C)nc(Nc3cccc(C)c3)c2C#N)cc(OC)c1OC
(A) 117

(Q) Same again, this time with C[C@H](NC(=O)c1c(N)nn2cccnc12)c1cc2cccc(C#Cc3cnn(C)c3)c2c(=O)n1-c1ccccc1
(A) -21.2

(Q) Same again, this time with CCOC(=O)c1c(NC(=O)c2ccc(C(C)(C)C)cc2)sc2cc(O)ccc12
(A) 87.9

(Q) Same again, this time with COC(=O)Nc1cccc(Cl)c1OC
(A) 90.1

(Q) Same again, this time with O=C(CSc1ccc(Cl)cc1)Nc1ccc(-c2nc3ccccc3s2)c(Cl)c1
(A) 52.1

(Q) Same again, this time with COC12C=C/C(=C(/C(=O)OCc3ccccn3)C(=O)CCCCCCCCC3(OC)C=C/C(=C(/C(=O)OCc4ccccn4)C(=O)CCCCCCCC1)O3)O2
(A) -32.5

(Q) Same again, this time with NC(CSC(c1ccccc1)(c1ccccc1)c1ccccc1)C(=O)O (stereo unspecified)
(A) 32.7

(Q) Same again, this time with Cc1occc1-c1n[nH]c(=S)n1N1C(=O)CSC1=S
(A) 103

(Q) Same again, this time with Cc1nn(-c2ccc(F)cc2)c2ncnc(Nc3ccc(NC(=O)Nc4ccc(Cl)c(C(F)(F)F)c4)cc3)c12
(A) -2.58

(Q) Same again, this time with COc1ccc2c(c1)nc(N)c1c3cc(OC)c(OC)cc3cn21
(A) 2.7

(Q) Same again, this time with COc1ccc(C2CC(c3cc(OC)c(OC)c(OC)c3)=NN2)cc1 (stereo unspecified)
(A) 66.6

(Q) Same again, this time with CN1CCN(Cc2ccc(NC(=O)c3cncc(C#Cc4cnc5ccc(OCC(F)F)nn45)c3)cc2C(F)(F)F)CC1
(A) -65.5

(Q) Same again, this time with OC(CN1CCCC2CCCCC21)c1cc2ccccc2c2ccccc12 (stereo unspecified)
(A) -24.4

(Q) Same again, this time with COc1cc2oc(-c3cccc(C(=O)Nc4ccc5c(c4)OCO5)c3)cc(=O)c2c(O)c1OC
(A) 54.6

(Q) Same again, this time with O=C(/C=C/c1ccccc1)c1ccccc1
(A) 74.8

(Q) Same again, this time with CS(=O)(=O)c1nccc(-c2c(-c3ccc(F)c(OCCc4ccccc4)c3)nc3sccn23)n1
(A) -83.4

(Q) Same again, this time with COc1ccc(/C=C/C(=O)Nc2cc(/C=C\c3cc(OC)c(OC)c(OC)c3)cc(OC)c2OC)cc1OC
(A) 17.5

###

# Test system: MDA-MB-468 breast
# assay method text: NCI-60 one-dose screen, 48 h
# measurement context: 10 µM unless noted
This is part of a sample that, as a whole, favours compounds with a hit. Of some 83,000 tested, about 20% had one in any assay. Active and inactive are the calls of the source. Rule for the calls: active = growth percent below 10; inactive = the rest.
Tick one outcome: yes (1) (active), no (0) (inactive)

(Q) Hi team, can someone confirm the assay call for CC(=O)c1c(O)c(C)c(O)c2c1OC1=CC(=O)/C(=C(/C)N)C(=O)C12C (centres undefined) ?
(A) no (0)

(Q) Same again, this time with CC/C(=C(/c1ccc(Cl)cc1)c1ccc(OCCN)cc1)c1ccccc1
(A) no (0)

(Q) Same again, this time with Cc1cc(NC(=O)CNc2nc(Oc3ccc(F)cc3)nc(-c3ccc(F)cc3)n2)ccc1Cl
(A) no (0)

(Q) Same again, this time with Cn1cc(-c2ccc3cc(-c4ccc(CC(=O)Nc5cc(C(C)(C)C)nn5C)cc4)cnc3c2)cn1
(A) yes (1)

(Q) Same again, this time with NC(N)=Nc1ccc(Oc2cccc(NC(N)=Nc3ccc(I)cc3F)c2)cc1
(A) no (0)

(Q) Same again, this time with Cc1ccc(C(=O)C2C(=O)C3CCC2C3)cc1 (centres undefined)
(A) no (0)

(Q) Same again, this time with Cc1nccc2c3ccc(OCc4cn(-c5ccc(Br)cc5)nn4)cc3n(CCCc3ccccc3)c12
(A) no (0)

(Q) Same again, this time with O=C(CNC(=O)c1cccc2ccccc12)Nc1ccccc1Cc1ccccc1
(A) no (0)

(Q) Same again, this time with CCCCn1sc(=O)n(Cc2ccc(CNC(=O)OCc3ccc4c(Br)cc(Br)c(O)c4n3)cc2)c1=O
(A) no (0)

(Q) Same again, this time with COc1ccc(Oc2[nH]n(C3=Nc4ccccc4Sc4ccccc43)c(=O)c2C#N)cc1
(A) no (0)

(Q) Same again, this time with Cc1c(C(=O)Nc2nc3ccccc3[nH]2)cnn1-c1ccccn1
(A) no (0)

(Q) Same again, this time with C=C(C)[C@@H]1CC[C@]2(C(=O)NCC(=O)O)CC[C@]3(C)[C@H](CC[C@@H]4[C@@]5(C)Cc6c([nH]c7ccccc67)C(C)(C)[C@@H]5CC[C@]43C)[C@@H]12
(A) no (0)

(Q) Same again, this time with CNC(=O)c1c(C)oc2cc(Oc3ncnc4cc(OC)c(OC)cc34)ccc12
(A) no (0)

(Q) Same again, this time with Cc1nc2cc(Nc3nc(Nc4ccc(F)cc4)nc(N4CCN(C)CC4)n3)ccc2n1Cc1ccccc1
(A) yes (1)

(Q) Same again, this time with COc1cc(OC)c2sc(-c3ccc(-n4cncc4-c4ccc(OC)c(OC)c4)cc3)nc2c1
(A) no (0)

(Q) Same again, this time with COc1ccc(/C=C2/C(=O)N=C3N2NC(c2ccccc2)=CN3c2ccccc2)cc1
(A) no (0)

(Q) Same again, this time with N#C/C(=C\c1ccc(-c2ccc(Cl)c(Cl)c2)o1)c1nc(-c2ccco2)cs1
(A) yes (1)

(Q) Same again, this time with CC(C)(C)n1cc(-c2ccnc(NCCNS(=O)(=O)c3cccc4ccccc34)c2)c(-c2cccc(O)c2)n1
(A) no (0)

(Q) Same again, this time with O=Cc1ccc(F)cc1
(A) no (0)

###

# Tested on: MDA-MB-468 breast
# assay method text: NCI-60 one-dose screen, 48 h (100 = growth as untreated, 0 = no growth, -100 = all killed)
# measurement context: 10 µM unless noted
The panel holds about 83,000 compounds, 20% with a hit somewhere; the sample as a whole holds those more often.
test readout: growth (%)
State the answer as a number, implicitly in %.

(Q) Which value of growth has been reported for COCCNC(C(=O)c1ccccc1)c1ccccc1 (stereo unspecified) in the records?
(A) 90.8

(Q) Same again, this time with COc1cc2nc(Nc3cccc(NC(C)=O)c3)nc(N)c2cc1OC
(A) 88.8

(Q) Same again, this time with Fc1cccc(-c2ccc3c(c2)C2(CCNCC2)CN3)c1
(A) 116

(Q) Same again, this time with CSc1ccc(N(C)c2nc(C)nc3c2CCC3)cc1
(A) 46.8

(Q) Same again, this time with COc1ccc(-c2csc(NC(=O)CO[N+](=O)[O-])n2)cc1
(A) 113

(Q) Same again, this time with O=C(CN1C(=O)NC2NC(=O)NC21)N/N=C/c1ccc(Cl)cc1Cl (stereo unspecified)
(A) 99.9
